Every entry's value here was drawn from ChEMBL document CHEMBL1955735.

test_protocol: Inhibition of aldehyde dehydrogenase
Active and inactive are the calls of the source. The rule behind the calls is not given here.

- molecule: "C[C@@H]1O[C@@H](OC[C@H]2O[C@@H](Oc3c(-c4ccc(O)c(O)c4)oc4cc(O)cc(O)c4c3=O)[C@H](OC(=O)/C=C/c3ccc(O)cc3)[C@@H](O)[C@@H]2O)[C@H](O)[C@H](O)[C@H]1O [CAMELLIQUERCETISIDE D]"
  inhibition: "inactive"
- molecule: "O=C(O[C@@H]1Cc2c(O)cc(O)cc2O[C@@H]1c1ccc(O)c(O)c1)c1cc(O)c(O)c(O)c1 [EPICATECHIN GALLATE]"
  inhibition: "inactive"
- molecule: "C[C@@H]1O[C@@H](OC[C@H]2O[C@@H](Oc3c(-c4ccc(O)c(O)c4)oc4cc(O)cc(O)c4c3=O)[C@H](OC(=O)/C=C/c3ccc(O)cc3)[C@@H](O[C@@H]3OC[C@H](O)[C@H](O)[C@H]3O)[C@@H]2O)[C@H](O)[C@H](O)[C@H]1O [CAMELLIQUERCETISIDE C]"
  inhibition: "inactive"
- molecule: "C[C@@H]1O[C@@H](OC[C@H]2O[C@@H](Oc3c(-c4ccc(O)c(O)c4)oc4cc(O)cc(O)c4c3=O)[C@H](O)[C@@H](O)[C@@H]2O)[C@H](O)[C@H](O[C@@H]2O[C@H](CO)[C@@H](O)[C@H](O)[C@H]2O)[C@H]1O"
  inhibition: "inactive"
- molecule: "Oc1cc(O)c2c(c1)O[C@H](c1ccc(O)c(O)c1)[C@@H](O)C2"
  inhibition: "inactive"
- molecule: "O=C(O[C@@H]1Cc2c(O)cc(O)cc2O[C@@H]1c1ccc(O)cc1)c1cc(O)c(O)c(O)c1"
  inhibition: "inactive"
